Tested on: Liver microsomes
assay comment: Intrinsic clearance in rat liver microsomes
Type: ADME, Microsome
test readout: CLint

[
  {
    "record smiles": "CN(C(=O)Nc1ccn(-c2ccccc2F)n1)[C@H]1CC[C@]2(CC1)COc1ccccc12",
    "test readout": "CLint",
    "value measured": "> 1120 mL/min/kg"
  },
  {
    "record smiles": "CN(C(=O)Nc1ccn(-c2ccccc2F)n1)[C@H]1CC[C@]2(CC1)OCc1ccccc12",
    "test readout": "CLint",
    "value measured": "> 1120 mL/min/kg"
  }
]

Consider the additional molecule presented here.
-- ask I would be grateful if you could share the reported CLint for CN(C(=O)Nc1cnc(-c2ccccc2)cn1)[C@H]1CC[C@]2(CC1)OC(=O)c1ccncc12 .
-- reply < 25 mL/min/kg
